Ref: paper PMC5267515

- Protocol text: Clinical drug interaction study (H8Y-MC-HBCF), plasma and urine pharmacokinetics in healthy subjects
- Measurement conditions: human, plasma, oral, 80 mg, Cmax LS Geometric Mean, LY2140023 Alone (Reference)
Readout label: Cmax (ng/mL)

(A) N[C@@]1(C(=O)O)CS(=O)(=O)[C@H]2[C@H](C(=O)O)[C@H]21
(B) CSCC[C@H](N)C(=O)N[C@@]1(C(=O)O)CS(=O)(=O)[C@H]2[C@H](C(=O)O)[C@H]21
Between A and B , which one has the lower reported Cmax value? Indicate your choice by writing its label. B
(B: 310 ng/mL, A: 484 ng/mL)

###

- Target or system: PEPT1 (Homo sapiens, UniProt P46059)
- Sequence (P46059 whole entry): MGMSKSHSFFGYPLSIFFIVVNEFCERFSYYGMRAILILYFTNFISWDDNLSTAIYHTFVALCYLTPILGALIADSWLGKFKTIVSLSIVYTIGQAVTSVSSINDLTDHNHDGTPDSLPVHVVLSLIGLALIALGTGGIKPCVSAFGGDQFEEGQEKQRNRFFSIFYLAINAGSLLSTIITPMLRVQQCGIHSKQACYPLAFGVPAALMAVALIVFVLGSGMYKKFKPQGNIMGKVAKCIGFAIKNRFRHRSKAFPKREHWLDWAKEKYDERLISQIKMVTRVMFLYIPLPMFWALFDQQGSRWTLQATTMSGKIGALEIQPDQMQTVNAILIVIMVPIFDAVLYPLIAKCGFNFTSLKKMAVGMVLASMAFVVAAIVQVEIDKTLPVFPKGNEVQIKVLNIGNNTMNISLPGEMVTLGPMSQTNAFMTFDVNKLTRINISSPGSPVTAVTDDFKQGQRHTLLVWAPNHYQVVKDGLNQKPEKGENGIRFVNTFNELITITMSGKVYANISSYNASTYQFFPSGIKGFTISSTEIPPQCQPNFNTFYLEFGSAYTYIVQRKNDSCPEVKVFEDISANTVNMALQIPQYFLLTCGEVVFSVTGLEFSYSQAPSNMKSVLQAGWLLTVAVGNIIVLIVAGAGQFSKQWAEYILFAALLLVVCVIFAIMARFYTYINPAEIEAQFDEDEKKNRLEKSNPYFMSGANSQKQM
- Protocol text: Inhibition of PEPT1-mediated [14C]Gly-Sar uptake in transfected HeLa cells
- Assay type: in vitro ADME
- Set-up: expressed in transfected cells; host or cells: HeLa cells (ATCC), transiently transfected with Fugene 6, pcDNA3.1 vector
- Measurement conditions: 25 μM [14C]Gly-Sar; LY2140023 5 to 1000 μM; 3 minutes; read-out: IC50 against Gly-Sar, mean of two separate experiments
Readout label: IC50 (µM)
Your answer should be a plain number; it is taken to be in µM.

Request the reported IC50 associated with CSCC[C@H](N)C(=O)N[C@@]1(C(=O)O)CS(=O)(=O)[C@H]2[C@H](C(=O)O)[C@H]21 18

###

- Protocol text: clinical
- Measurement conditions: human, in vivo, AUC(0-∞) LS Geometric Mean
Readout label: AUC(0-inf) (ng·h/mL)
// units = ng·h/mL; emit number, no label

Query (compound): Nc1nc2c(ncn2COCCO)c(=O)[nH]1 ; field requested: AUC(0-inf) 17500

###

- Target or system: PEPT1 (Homo sapiens, UniProt P46059)
- Protocol text: Inhibition of PEPT1-mediated [14C]LY2140023 uptake in transfected HeLa cells
- Measurement conditions: IC50 against LY2140023, first of two separate experiments; 10 μM [14C]LY2140023
pIC50: −log10 of the molar value. Non-standard residues stand in square brackets, D forms with d. Residues, ends and D or L forms follow the SMILES beside them. Sar = CNCC(=O)O
Readout label: pIC50

{"Compound": "CCOC(=O)[C@H](CCc1ccccc1)N[C@@H](C)C(=O)N1CCC[C@H]1C(=O)O [Enalapril]", "Target or system": "PEPT1 (Homo sapiens, UniProt P46059)", "pIC50": 1.96}

(a) CN(CC(=O)O)C(=O)CN [Gly-Sar, glycylsarcosine] (H-Gly-[Sar]-OH)
(b) N[C@@H](Cc1ccc(O)c(O)c1)C(=O)O [L- DOPA, L-DOPA]
(c) CC1=C(C(=O)O)N2C(=O)[C@@H](NC(=O)[C@H](N)c3ccc(O)cc3)[C@H]2SC1 [Cefadroxil]
Returns the items ordered by pIC50, from maximum to minimum. Provide the labels, sequenced as the question asks. a, c, b

(P) NCC(=O)CCC(=O)O [ALA, 5-aminolevulinic acid]
(Q) CC(C)[C@H](N)C(=O)OCCOCn1cnc2c(=O)[nH]c(N)nc21 [Valacyclovir]
Name the one with the greater pIC50 value, either P or Q as given. I would appreciate it if you answered with the label of your choice. Q

###

- Protocol text: Clinical drug interaction study (H8Y-MC-HBCF), plasma and urine pharmacokinetics in healthy subjects
- Measurement conditions: human, plasma, oral, AUC(0-3), LY2140023 80 mg + valacyclovir 1000 mg coadministered; geometric mean (CV%)
Readout label: AUC(0-t) (ng·h/mL)
Give the value, in units of ng·h/mL, as a plain number.

Any idea what its AUC(0-t) is? The compound is CC(C)[C@H](N)C(=O)OCCOCn1cnc2c(=O)[nH]c(N)nc21 270

###

- Protocol text: Clinical drug interaction study (H8Y-MC-HBCF), plasma and urine pharmacokinetics in healthy subjects
- Measurement conditions: human, plasma, oral, 1000 mg, AUC(0-3) LS Geometric Mean, Valacyclovir Alone (Reference)
Readout label: AUC(0-t) (ng·h/mL)
Provide the reading as a plain figure in ng·h/mL.

I'd like to know its AUC(0-t). The molecule in question is CC(C)[C@H](N)C(=O)OCCOCn1cnc2c(=O)[nH]c(N)nc21 [Valacyclovir] 309

###

- Protocol text: clinical
- Measurement conditions: human, in vivo, Cmax LS Geometric Mean
Readout label: Cmax (ng/mL)
Numeric only. Scale: ng/mL

Name the recorded Cmax for Nc1nc2c(ncn2COCCO)c(=O)[nH]1 [Acyclovir] . 4400

###

- Protocol text: Clinical drug interaction study (H8Y-MC-HBCF), plasma and urine pharmacokinetics in healthy subjects
- Measurement conditions: human, plasma, oral, Cmax LS Geometric Mean, LY2140023 + Valacyclovir (Test)
Readout label: Cmax (ng/mL)

{"Chem smiles": "CC(C)[C@H](N)C(=O)OCCOCn1cnc2c(=O)[nH]c(N)nc21", "Readout label": "Cmax", "Assay result": 258}

(1) N[C@@]1(C(=O)O)CS(=O)(=O)[C@H]2[C@H](C(=O)O)[C@H]21
(2) CSCC[C@H](N)C(=O)N[C@@]1(C(=O)O)CS(=O)(=O)[C@H]2[C@H](C(=O)O)[C@H]21
Would you mind telling me which has the lower recorded Cmax between 1 and 2 ? The response must carry the label of the picked entry. 2
(2: 275 ng/mL, 1: 447 ng/mL)

###

- Protocol text: Clinical drug interaction study (H8Y-MC-HBCF), plasma and urine pharmacokinetics in healthy subjects
- Measurement conditions: human, plasma, oral, AUC(0-∞), LY2140023 80 mg + valacyclovir 1000 mg coadministered; geometric mean (CV%)
Readout label: AUC(0-inf) (ng·h/mL)

(I) CSCC[C@H](N)C(=O)N[C@@]1(C(=O)O)CS(=O)(=O)[C@H]2[C@H](C(=O)O)[C@H]21
(II) N[C@@]1(C(=O)O)CS(=O)(=O)[C@H]2[C@H](C(=O)O)[C@H]21
Could you point out whether the larger AUC(0-inf) belongs to I or to II ? Kindly give the label for the entry you pick. II
(II: 2490 ng·h/mL, I: 1210 ng·h/mL)

###

- Protocol text: Clinical drug interaction study (H8Y-MC-HBCF), plasma and urine pharmacokinetics in healthy subjects
- Measurement conditions: human, plasma, oral, 1000 mg, tmax, single 1000-mg dose of valacyclovir alone; median (min–max)
Readout label: Tmax (h)
Report only the number, with the unit h understood.

Entry CC(C)[C@H](N)C(=O)OCCOCn1cnc2c(=O)[nH]c(N)nc21 : reported Tmax = ? 2

###

- Protocol text: clinical
- Measurement conditions: human, in vivo, tmax
Readout label: Tmax (h)
Answer format: numeric, h implied, no suffix.

Can you look up the measured Tmax of Nc1nc2c(ncn2COCCO)c(=O)[nH]1 for me? 2.5

###

- Protocol text: Clinical drug interaction study (H8Y-MC-HBCF), plasma and urine pharmacokinetics in healthy subjects
- Measurement conditions: human, plasma, oral, 80 mg, AUC(0-∞), single 80-mg dose of LY2140023 alone; geometric mean (CV%)
Readout label: AUC(0-inf) (ng·h/mL)

(1) CSCC[C@H](N)C(=O)N[C@@]1(C(=O)O)CS(=O)(=O)[C@H]2[C@H](C(=O)O)[C@H]21
(2) N[C@@]1(C(=O)O)CS(=O)(=O)[C@H]2[C@H](C(=O)O)[C@H]21
Larger number for AUC(0-inf): 1 , or 2 ? Lab log: write the label of the selected item as the result. 2
(2: 2600 ng·h/mL, 1: 1330 ng·h/mL)
